Give measured rat MASP1 IC50 for each item. Keep answers brief.
Target: T1, recombinant rat MASP1 active protease (amino acids 302-704, C-terminal His Tag) (rat, UniProt Q8CHN8 302-704)
T1 sequence: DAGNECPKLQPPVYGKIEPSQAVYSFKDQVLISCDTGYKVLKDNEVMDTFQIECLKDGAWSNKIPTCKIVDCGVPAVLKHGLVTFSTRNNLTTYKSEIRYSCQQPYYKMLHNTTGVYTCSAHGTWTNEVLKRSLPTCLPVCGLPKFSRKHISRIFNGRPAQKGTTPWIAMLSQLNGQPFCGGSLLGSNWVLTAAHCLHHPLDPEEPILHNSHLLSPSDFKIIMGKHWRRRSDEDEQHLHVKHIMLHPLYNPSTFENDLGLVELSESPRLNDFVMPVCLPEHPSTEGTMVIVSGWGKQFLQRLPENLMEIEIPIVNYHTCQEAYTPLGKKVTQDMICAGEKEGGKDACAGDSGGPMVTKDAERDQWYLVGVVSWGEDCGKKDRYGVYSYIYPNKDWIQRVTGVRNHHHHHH
Assay: cell-based or functional assay
Bridge positions count the residues as written; N and C are the ends. Square brackets hold non-standard residues; d marks the D form. Ends that are not written are not given here. Phe(3-COOH) = N[C@@H](Cc1cccc(C(=O)O)c1)C(=O)O; tBuAla = CC(C)(C)C[C@H](N)C(=O)O; Pen = CC(C)(S)[C@H](N)C(=O)O; NMeC = CN[C@@H](CS)C(=O)O; Orn = NCCC[C@H](N)C(=O)O; Nva = CCC[C@H](N)C(=O)O; Sar = CNCC(=O)O
One number for each entry, in nM.

Consider the reported rat MASP1 IC50 for these binders:
A[Nva]CSRS[tBuAla]PPI[Pen]IPD-NH2 (disulfide 3-11; N-terminus assumed; SMILES CCC[C@H](NC(=O)[C@H](C)N)C(=O)N[C@H]1CSSC(C)(C)[C@@H](C(=O)N[C@H](C(=O)N2CCC[C@H]2C(=O)N[C@@H](CC(=O)O)C(N)=O)[C@@H](C)CC)NC(=O)[C@H]([C@@H](C)CC)NC(=O)[C@@H]2CCCN2C(=O)[C@@H]2CCCN2C(=O)[C@H](CC(C)(C)C)NC(=O)[C@H](CO)NC(=O)[C@H](CCCNC(=N)N)NC(=O)[C@H](CO)NC1=O) [Example 199: A-(Nva)-C+SRS-((tBu)A)-PPI-(Pen)+IPD-NH2] = 180
[Orn]ICSRS[tBuAla]PPI[NMeC]IPD-NH2 (disulfide 3-11; also: HCl salt) [Example 78: (Orn)-IC+SRS-((tBu)A)-PPI-((N-Me)C)+IPD-NH2 (HCl salt)] = 48

Could you now consider this next binder?
Documented rat MASP1 IC50 of [Sar]ICSRS[tBuAla]PPI[Pen]IP[Phe(3-COOH)]-OH (disulfide 3-11; N-terminus assumed; SMILES CC[C@H](C)[C@H](NC(=O)CNC)C(=O)N[C@H]1CSSC(C)(C)[C@@H](C(=O)N[C@H](C(=O)N2CCC[C@H]2C(=O)N[C@@H](Cc2cccc(C(=O)O)c2)C(=O)O)[C@@H](C)CC)NC(=O)[C@H]([C@@H](C)CC)NC(=O)[C@@H]2CCCN2C(=O)[C@@H]2CCCN2C(=O)[C@H](CC(C)(C)C)NC(=O)[C@H](CO)NC(=O)[C@H](CCCNC(=N)N)NC(=O)[C@H](CO)NC1=O) [Example 482: ((N-Me)G)-IC+SRS-((tBu)A)-PPI-(Pen)+IP-((3-Carboxy)F)-OH] : 18
